Please provide measured response for the entries that follow.
Biological target: Beta-2 adrenergic receptor (Homo sapiens) (UniProt P07550)
Sequence (P07550 whole entry, looked up): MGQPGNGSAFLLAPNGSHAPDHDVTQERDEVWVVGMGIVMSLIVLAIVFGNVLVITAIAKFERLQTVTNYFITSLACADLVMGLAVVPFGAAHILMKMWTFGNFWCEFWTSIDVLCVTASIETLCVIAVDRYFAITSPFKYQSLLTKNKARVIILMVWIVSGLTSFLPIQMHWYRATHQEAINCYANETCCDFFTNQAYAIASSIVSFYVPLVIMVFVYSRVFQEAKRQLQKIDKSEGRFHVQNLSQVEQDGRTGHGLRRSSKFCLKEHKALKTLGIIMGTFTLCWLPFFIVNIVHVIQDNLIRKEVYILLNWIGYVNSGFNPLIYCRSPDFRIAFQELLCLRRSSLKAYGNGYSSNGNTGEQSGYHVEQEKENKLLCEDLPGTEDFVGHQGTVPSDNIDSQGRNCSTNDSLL
Test: agonist-induced loss of surface beta2AR – cell-based, FAP fluorogen, flow cytometry, validation set, pilot screen (AID 504459);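 note: agonist-driven loss of surface beta2AR via internalization measured by FAP dye flow cytometry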
Settings: Am2.2-beta2AR cells, at 10 µM, hits give high values
// note: answer is a bare numeric in %

INPUT: Returns the measured response for the input compound. Input: "CCCCOc1cc(C(=O)NCCN(CC)CC)c2ccccc2n1"
OUTPUT: -3.62

INPUT: Returns the measured response for the input compound. Input: Cc1cc(-c2nn(-c3ccccc3F)cc2CN2CCCC(O)C2)c(C)s1 (stereo unspecified)
OUTPUT: -40.3

INPUT: Returns the measured response for the input compound. Input: "N/C(=N\OC(=O)c1ccc(Br)o1)c1ccccn1"
OUTPUT: -28.6

INPUT: Returns the measured response for the input compound. Input: "COc1cc2c(cc1NCc1ccc3c(c1)OCO3)oc1ccccc12"
OUTPUT: 4.3

INPUT: Returns the measured response for the input compound. Input: CCOC(=O)C1=C(N)Oc2c(c(=O)[nH]c3ccccc23)C1c1ccccc1 (stereo unspecified)
OUTPUT: 3.69

INPUT: Returns the measured response for the input compound. Input: C=CC1=C(C(=O)O)N2C(=O)C(NC(=O)Cc3ccccc3)C2SC1 (stereo unspecified)
OUTPUT: 0.41

###

Please provide measured efflux inhibition (fraction of control) for the entries that follow.
Test: Nile Red efflux blockade in pump-expressing yeast – validation compound set, multiplex, phenotypic, pilot screen (AID 588506);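 note: Nile Red retained in cells so higher fluorescence means more efflux inhibition; 0 = negative control wells and 1 = enniatin B 25 µM full block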
Conditions: S. cerevisiae pump-expressing triplex, Nile Red efflux flow cytometry; at 10 µM; hits give high values; the pumps come from Candida albicans
The source made the active and inactive calls.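 Rule for the calls: active = efflux inhibition above 0.42, the validation set average plus 4 SD; inconclusive = no clear call, values can overlap the other calls; inactive = the rest.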

INPUT: Returns the measured efflux inhibition (fraction of control) for the input compound. Input: "Cc1cccc(Oc2coc3cc(OC(=O)c4cncc(Br)c4)ccc3c2=O)c1"
OUTPUT: 0.33 (inactive)

INPUT: Returns the measured efflux inhibition (fraction of control) for the input compound. Input: NC(=O)C1CCCNC1 (centres undefined)
OUTPUT: 0.11 (inactive)

INPUT: Returns the measured efflux inhibition (fraction of control) for the input compound. Input: "CCn1c(N2CCN(CC(=O)c3c(C)n(C)c4ccc(OC)cc34)CC2)nc2c1c(=O)[nH]c(=O)n2C"
OUTPUT: -0.26 (inactive)

INPUT: Returns the measured efflux inhibition (fraction of control) for the input compound. Input: COc1ccc(CCN2C(=O)CSC2c2ccc(OC)c(OC)c2)cc1OC (centres undefined)
OUTPUT: 0.05 (inactive)

INPUT: Returns the measured efflux inhibition (fraction of control) for the input compound. Input: CCOC(=O)C1=C(C)NC(C)=C(C(=O)OC)C1c1cccc(Cl)c1Cl (centres undefined)
OUTPUT: -0.28 (inactive)

INPUT: Returns the measured efflux inhibition (fraction of control) for the input compound. Input: COc1ccc(C2C3CCCCC3(O)CCN2C(=O)c2cccs2)cc1 (centres undefined)
OUTPUT: 0.12 (inactive)

INPUT: Returns the measured efflux inhibition (fraction of control) for the input compound. Input: CCC(C(=O)OCCN(CC)CC)c1ccccc1 (centres undefined)
OUTPUT: 0.26 (inactive)

INPUT: Returns the measured efflux inhibition (fraction of control) for the input compound. Input: "COC(=O)c1ccc2c(c1)C(=O)/C(=C/c1ccc(O)cc1)O2"
OUTPUT: 0.19 (inactive)

INPUT: Returns the measured efflux inhibition (fraction of control) for the input compound. Input: "O=C(N/C(=C/C=C\c1ccccc1)C(=O)N1CCOCC1)c1ccc(Br)cc1"
OUTPUT: 0.42 (inactive)

INPUT: Returns the measured efflux inhibition (fraction of control) for the input compound. Input: "COc1cc2cc(C(=O)O)[nH]c2c(OC)c1OC"
OUTPUT: -0.32 (inactive)

INPUT: Returns the measured efflux inhibition (fraction of control) for the input compound. Input: C[N+]1(C2CCC3CCCC2C3O)CCCCC1 (centres undefined)
OUTPUT: -0.1 (inactive)

INPUT: Returns the measured efflux inhibition (fraction of control) for the input compound. Input: COc1ccccc1N1CCN(CC(O)COc2cccc3ccccc23)CC1 (centres undefined)
OUTPUT: -0.09 (inactive)

INPUT: Returns the measured efflux inhibition (fraction of control) for the input compound. Input: "O=C(N/N=C\c1cc([N+](=O)[O-])ccc1N1CCOCC1)c1ccccn1"
OUTPUT: 0.35 (inactive)

INPUT: Returns the measured efflux inhibition (fraction of control) for the input compound. Input: "Cc1cccc(NC(=O)c2cc3ccccc3o2)c1"
OUTPUT: -0.24 (inactive)

INPUT: Returns the measured efflux inhibition (fraction of control) for the input compound. Input: "CCN(CC)C(=O)c1sc(NC(=O)c2c(OC)cccc2OC)c(C#N)c1C"
OUTPUT: -0.025 (inactive)

INPUT: Returns the measured efflux inhibition (fraction of control) for the input compound. Input: "O=C(O)CCC(=O)c1ccc(-c2ccccc2)cc1"
OUTPUT: 0.36 (inactive)

INPUT: Returns the measured efflux inhibition (fraction of control) for the input compound. Input: CC(C)(C)OC(=O)N1CC(O)CC1C(=O)OCC(=O)c1ccc(Cl)cc1 (centres undefined)
OUTPUT: 0.14 (inactive)

INPUT: Returns the measured efflux inhibition (fraction of control) for the input compound. Input: CCC(C)NCCOc1ccccc1C (centres undefined)
OUTPUT: -0.61 (inactive)

INPUT: Returns the measured efflux inhibition (fraction of control) for the input compound. Input: COc1ccc(CNC(=O)C2CCCN2C)cc1OC (centres undefined)
OUTPUT: -0.29 (inactive)

INPUT: Returns the measured efflux inhibition (fraction of control) for the input compound. Input: "O=C(NC1CC1)C1CCN(C2CCN(C(=O)Cc3ccc(F)cc3)CC2)CC1"
OUTPUT: 0.27 (inactive)

INPUT: Returns the measured efflux inhibition (fraction of control) for the input compound. Input: CCOc1ccc(C(=O)NC(C)C2COc3ccccc3O2)cc1 (centres undefined)
OUTPUT: -0.17 (inactive)

INPUT: Returns the measured efflux inhibition (fraction of control) for the input compound. Input: CN1C(=O)NC(c2ccc(O)cc2)C2=C1CN(c1cccc3ccccc13)C2=O (centres undefined)
OUTPUT: -0.23 (inactive)

INPUT: Returns the measured efflux inhibition (fraction of control) for the input compound. Input: "CC(=O)[C@@]1(O)CC[C@H]2[C@@H]3C[C@H](C)C4=CC(=O)C=C[C@]4(C)[C@@]3(F)[C@@H](O)C[C@@]21C"
OUTPUT: -0.35 (inactive)

INPUT: Returns the measured efflux inhibition (fraction of control) for the input compound. Input: "O=C(c1ccco1)N1CCCN(Cc2nc(-c3ccc4c(c3)OCO4)no2)CC1"
OUTPUT: 0.02 (inactive)

###

Experiment: TOR pathway GLN3 branch reporter MEP2-GFP changes – S. cerevisiae, multiplex flow cytometry, primary screen (AID 1867);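 note: median GFP channel fluorescence of barcode-gated MEP2-GFP cells measured by flow cytometry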
Conditions: S. cerevisiae MEP2-GFP strain, 3 h, at 10 µM, hits give high values, 100% means same as DMSO wells
Results filed as inconclusive are left out. Calls of active or inactive are those of the source.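 Rule for the calls: active = GFP response, as percent of the DMSO control, above the screen-wide mean plus 3 SD, about 139; inconclusive = no response measured because the compound's own fluorescence interfered; inactive = the rest.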
PARAMETER MEASURED: GFP response vs DMSO

INPUT: Returns the measured GFP response vs DMSO for the input compound. Input: "COC(=O)CCC(=O)CN"
OUTPUT: 106% (inactive)

INPUT: Returns the measured GFP response vs DMSO for the input compound. Input: "COc1ccccc1NC(=O)N1CCc2[nH]c3ccc(Cl)cc3c2C1"
OUTPUT: 110% (inactive)

INPUT: Returns the measured GFP response vs DMSO for the input compound. Input: "Cn1cc(/C=C/C(=O)c2ccccc2)c2ccccc21"
OUTPUT: 107% (inactive)

INPUT: Returns the measured GFP response vs DMSO for the input compound. Input: "CCc1cc(=O)oc2cc3occ(-c4ccc(OC)c(F)c4)c3cc12"
OUTPUT: 116% (inactive)

INPUT: Returns the measured GFP response vs DMSO for the input compound. Input: "OCC1CCN(Cc2cn(Cc3ccccc3)nc2-c2cc3ccccc3o2)CC1"
OUTPUT: 97.2% (inactive)

INPUT: Returns the measured GFP response vs DMSO for the input compound. Input: CCN1C(=O)C(CC(=O)Nc2ccc(F)cc2)N(Cc2ccco2)C1=S (stereo unspecified)
OUTPUT: 102% (inactive)

INPUT: Returns the measured GFP response vs DMSO for the input compound. Input: "O=c1c(C(c2ccccc2)c2c(O)sc3ccccc3c2=O)c(O)sc2ccccc12"
OUTPUT: 97.6% (inactive)

INPUT: Returns the measured GFP response vs DMSO for the input compound. Input: "CC(=O)Nc1ccc2[nH]c(C)c(CC=C(Cl)Cl)c(=O)c2c1"
OUTPUT: 113% (inactive)

INPUT: Returns the measured GFP response vs DMSO for the input compound. Input: COc1ccc(NC(=O)CC2C(=O)N(C)C(=S)N2Cc2ccncc2)cc1 (stereo unspecified)
OUTPUT: 123% (inactive)

INPUT: Returns the measured GFP response vs DMSO for the input compound. Input: "C[C@]12CC[C@@H]3c4ccc(O)cc4CC[C@H]3[C@@H]1C[C@@H](O)[C@@H]2O[C@@H]1O[C@H](C(=O)O)[C@@H](O)[C@H](O)[C@H]1O"
OUTPUT: 113% (inactive)

INPUT: Returns the measured GFP response vs DMSO for the input compound. Input: "CC(=O)OCC[N+](C)(C)C"
OUTPUT: 116% (inactive)

Source of measurements: PubChem BioAssay
